Could you please report measured IC50 for the items listed next?
# System Under Test: TYK2 JH2 domain (Homo sapiens (Human), UniProt P29597)
# Sequence (P29597 589-875): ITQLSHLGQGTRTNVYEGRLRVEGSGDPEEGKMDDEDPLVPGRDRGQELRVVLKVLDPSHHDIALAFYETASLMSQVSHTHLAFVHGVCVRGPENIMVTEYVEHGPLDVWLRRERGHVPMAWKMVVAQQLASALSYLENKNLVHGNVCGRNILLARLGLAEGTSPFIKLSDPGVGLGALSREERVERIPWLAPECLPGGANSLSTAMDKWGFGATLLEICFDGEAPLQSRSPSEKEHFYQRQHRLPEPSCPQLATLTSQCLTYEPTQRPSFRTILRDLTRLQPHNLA
# Assay Protocol: TYK2 JH2 NanoBRET assay
# Assay type: binding
# Stated Conditions: Table 20, read-out: TYK2 IC50
# Experimental: HEK293T cells were transfected with NanoLuc-TYK2 JH2 Fusion Vector (Promega, customized) using Trans-IT reagent (Mirus, #MIR2700) and incubated for overnight in 37° C. incubator. […] Add 85 µL of cell suspension into white, polypropylene, 96-well plates (Corning, #3600). 90 µL of cells were used for no tracer control samples. […] NanoBRET signal was determined by using the ratio of acceptor signal and donor signal.

Please review the entries below; each comes with its answer.
{"Compound": "CCC(=O)c1cnc(Nc2cnc(C(F)(F)CN)cn2)cc1Nc1cccc(-c2ncn(C)n2)c1OC [Compound 19A]", "Observed Property": "IC50", "Measured": "5 to 50 nM"}
{"Compound": "CCC(=O)c1cnc(Nc2ccc(C(C)NC)cn2)cc1Nc1cccc(-c2ncn(C)n2)c1OC (stereo not shown)", "Observed Property": "IC50", "Measured": "< 5 nM"}

Below are 5 compounds. Give each one its IC50.
1. CCC(=O)c1cnc(Nc2cnc(C(F)(F)CN(C)C)cn2)cc1Nc1cccc(-c2ncn(C)n2)c1OC [Compound 19C]
2. CCC(=O)c1cnc(Nc2ccn(CC3CCO3)n2)cc1Nc1cccc(-c2ncn(C)n2)c1OC (stereo not shown) [Compound 21V]
3. CCC(=O)c1cnc(NC(=O)[C@@H]2C[C@H]2NC(=O)OC(C)(C)C)cc1Nc1cccc(-c2ncn(C)n2)c1OC [Compound 22H]
4. CCC(=O)c1cnc(Nc2ccc(O[C@@H]3CCN(C)C3)cn2)cc1Nc1cccc(-c2ncn(C)n2)c1OC [Compound 18V]
5. CCC(=O)c1cnc(Nc2ccc(CN(C)C3CC3)cn2)cc1Nc1cccc(-c2ncn(C)n2)c1OC

(A)
1: 5 to 50 nM; 2: 50 to 500 nM; 3: ≥ 500 nM; 4: < 5 nM; 5: 5 to 50 nM
